Measured values drawn from ChEMBL document CHEMBL5352469 for this set.

test: Chemical stability of the compound under 4500 +/- 500 lx light condition by measuring compound purity incubated for 10 days by HPLC-PDA method relative to initial purity; type: physicochemical; settings: time 10 day; read-out: Stability
REPORTED_ENDPOINT: remaining at 240 h (%)
Express the result in % but write the number alone.

Q. Tell me the measured remaining at 240 h of O=C(O)/C=C\C(=O)O.O=c1cc(N2CCN(CC3CCCCC3)CC2)sc2c([N+](=O)[O-])cc(C(F)(F)F)cc12 , please.
A. 100

* * *

Could you please report measured Stability for the items listed next?
experiment: Chemical stability of the compound under 60 degree C high temperature by measuring compound purity incubated for 10 days by HPLC-PDA method analysis relative to initial purity; type: physicochemical; conditions: 240 h; time 10 day
Use % as the unit, but write only the number.

Q. Consider the compound shown here: O=C(O)C[C@H](O)C(=O)O.O=c1cc(N2CCN(CC3CCCCC3)CC2)sc2c([N+](=O)[O-])cc(C(F)(F)F)cc12 What is its recorded Stability?
A. 98.2

Q. Value lookup for Stability; key = O=C(O)CC(O)(CC(=O)O)C(=O)O.O=c1cc(N2CCN(CC3CCCCC3)CC2)sc2c([N+](=O)[O-])cc(C(F)(F)F)cc12
A. 99.6

Q. Which Stability is listed for Cl.O=c1cc(N2CCN(CC3CCCCC3)CC2)sc2c([N+](=O)[O-])cc(C(F)(F)F)cc12 ?
A. 100

Q. Param item = O=c1cc(N2CCN(CC3CCCCC3)CC2)sc2c([N+](=O)[O-])cc(C(F)(F)F)cc12 ; retrieve measured Stability.
A. 100

* * *

test: Chemical stability of the compound under 60 degree C high temperature by measuring compound purity incubated for 10 days by HPLC-PDA method analysis relative to initial purity; assay type: physicochemical; conditions: time 10 day; read-out: Stability
REPORTED_ENDPOINT: remaining at 240 h

Q. Looking for the measured remaining at 240 h of O=C(O)/C=C\C(=O)O.O=c1cc(N2CCN(CC3CCCCC3)CC2)sc2c([N+](=O)[O-])cc(C(F)(F)F)cc12 , can you help?
A. 100%

* * *

test: Cmax in Balb/c mouse at 50 mg/kg, po measured upto 24 hrs by LC/MS/MS analysis; format: ADME, organism-based; set-up: time < 24 hrs, dose 50 mg/kg, route po; details: in vivo
REPORTED_ENDPOINT: Cmax (ng/mL)
Express it in ng/mL; write the number only.

Q. Query (compound): O=C(O)/C=C/C(=O)O.O=C(O)/C=C/C(=O)O.O=C(O)/C=C/C(=O)O.O=c1cc(N2CCN(CC3CCCCC3)CC2)sc2c([N+](=O)[O-])cc(C(F)(F)F)cc12.O=c1cc(N2CCN(CC3CCCCC3)CC2)sc2c([N+](=O)[O-])cc(C(F)(F)F)cc12 ; field requested: Cmax
A. 542

Q. Consider the compound shown here: O=C(O)/C=C\C(=O)O.O=c1cc(N2CCN(CC3CCCCC3)CC2)sc2c([N+](=O)[O-])cc(C(F)(F)F)cc12 What is its recorded Cmax?
A. 776

Q. I would be grateful if you could share the reported Cmax for Cl.O=c1cc(N2CCN(CC3CCCCC3)CC2)sc2c([N+](=O)[O-])cc(C(F)(F)F)cc12 .
A. 502

Q. Which value of Cmax has been reported for O=c1cc(N2CCN(CC3CCCCC3)CC2)sc2c([N+](=O)[O-])cc(C(F)(F)F)cc12 in the records?
A. 588

Q. Query: Cmax; subject: O=C(O)C[C@H](O)C(=O)O.O=c1cc(N2CCN(CC3CCCCC3)CC2)sc2c([N+](=O)[O-])cc(C(F)(F)F)cc12
A. 979

Q. Endpoint output: Cmax of O=C(O)CC(O)(CC(=O)O)C(=O)O.O=c1cc(N2CCN(CC3CCCCC3)CC2)sc2c([N+](=O)[O-])cc(C(F)(F)F)cc12 . Value?
A. 536

* * *

assay: Tmax in Sprague-Dawley rat at 50 mg/kg, po measured upto 24 hrs by LC/MS/MS analysis; type: ADME, organism-based; settings: in vivo
REPORTED_ENDPOINT: Tmax (h)
Numbers only; they are read as h.

Q. Data request, read-out Tmax, for O=c1cc(N2CCN(CC3CCCCC3)CC2)sc2c([N+](=O)[O-])cc(C(F)(F)F)cc12
A. 3.67

Q. Request the reported Tmax associated with Cl.O=c1cc(N2CCN(CC3CCCCC3)CC2)sc2c([N+](=O)[O-])cc(C(F)(F)F)cc12
A. 1.67

Q. Reported Tmax, compound O=C(O)/C=C\C(=O)O.O=c1cc(N2CCN(CC3CCCCC3)CC2)sc2c([N+](=O)[O-])cc(C(F)(F)F)cc12 : ____
A. 3.33

* * *

Give measured bioavailability for each item. Keep answers brief.
test: Oral bioavailability in Balb/c mouse at 50 mg/kg measured upto 24 hrs by LC/MS/MS analysis; format: ADME, organism-based; conditions: Balb/c, in vivo
Field format: number, assumed %, no unit text.

Q. Could you tell me which bioavailability is on file for O=C(O)C[C@H](O)C(=O)O.O=c1cc(N2CCN(CC3CCCCC3)CC2)sc2c([N+](=O)[O-])cc(C(F)(F)F)cc12 ?
A. 27.7

Q. Requested read-out: bioavailability. Entry: O=C(O)/C=C/C(=O)O.O=C(O)/C=C/C(=O)O.O=C(O)/C=C/C(=O)O.O=c1cc(N2CCN(CC3CCCCC3)CC2)sc2c([N+](=O)[O-])cc(C(F)(F)F)cc12.O=c1cc(N2CCN(CC3CCCCC3)CC2)sc2c([N+](=O)[O-])cc(C(F)(F)F)cc12
A. 18.9

Q. Fill in: bioavailability of O=C(O)CC(O)(CC(=O)O)C(=O)O.O=c1cc(N2CCN(CC3CCCCC3)CC2)sc2c([N+](=O)[O-])cc(C(F)(F)F)cc12 is ___
A. 19.4

Q. // query bioavailability value for entry O=C(O)/C=C\C(=O)O.O=c1cc(N2CCN(CC3CCCCC3)CC2)sc2c([N+](=O)[O-])cc(C(F)(F)F)cc12
A. 28

* * *

assay: Apparent permeability across apical to basolateral side in human Caco-2 cells incubated for 21 days; assay type: ADME, cell-based; conditions: time 21 day
For each of the compounds below, state its Papp A→B.
Your answer should be a plain number; it is taken to be in ×10⁻⁶ cm/s.

Q. Which Papp A→B is listed for O=C(O)CC(O)(CC(=O)O)C(=O)O.O=c1cc(N2CCN(CC3CCCCC3)CC2)sc2c([N+](=O)[O-])cc(C(F)(F)F)cc12 ?
A. 2.52

Q. So what's the measured Papp A→B for this one? O=C(O)/C=C/C(=O)O.O=C(O)/C=C/C(=O)O.O=C(O)/C=C/C(=O)O.O=c1cc(N2CCN(CC3CCCCC3)CC2)sc2c([N+](=O)[O-])cc(C(F)(F)F)cc12.O=c1cc(N2CCN(CC3CCCCC3)CC2)sc2c([N+](=O)[O-])cc(C(F)(F)F)cc12
A. 7.79

Q. Bench note: what Papp A→B did O=C(O)/C=C\C(=O)O.O=c1cc(N2CCN(CC3CCCCC3)CC2)sc2c([N+](=O)[O-])cc(C(F)(F)F)cc12 show?
A. 3.1

Q. Could you tell me which Papp A→B is on file for O=C(O)C[C@H](O)C(=O)O.O=c1cc(N2CCN(CC3CCCCC3)CC2)sc2c([N+](=O)[O-])cc(C(F)(F)F)cc12 ?
A. 7.78

Q. Papp A→B lookup needed for O=C(O)CC(O)(CC(=O)O)C(=O)O.O=C(O)CC(O)(CC(=O)O)C(=O)O.O=C(O)CC(O)(CC(=O)O)C(=O)O.O=c1cc(N2CCN(CC3CCCCC3)CC2)sc2c([N+](=O)[O-])cc(C(F)(F)F)cc12.O=c1cc(N2CCN(CC3CCCCC3)CC2)sc2c([N+](=O)[O-])cc(C(F)(F)F)cc12 , thanks.
A. 4.08

Q. # query: Papp A→B of entry O=c1cc(N2CCN(CC3CCCCC3)CC2)sc2c([N+](=O)[O-])cc(C(F)(F)F)cc12
A. 11.8

Q. Give its Papp A→B value. Item: Cl.O=c1cc(N2CCN(CC3CCCCC3)CC2)sc2c([N+](=O)[O-])cc(C(F)(F)F)cc12
A. 0.39

* * *

assay: Lipophilicity, log D of the compound in octanol/water at pH 4.0 incubated for 72 hrs under shaking condition by shake flask based HPLC-PDA method; format: physicochemical; conditions: pH 4
REPORTED_ENDPOINT: logD at 72 h
Hey, just send me the number, nothing else.

Q. I have this molecule here, O=C(O)/C=C\C(=O)O.O=c1cc(N2CCN(CC3CCCCC3)CC2)sc2c([N+](=O)[O-])cc(C(F)(F)F)cc12 , and I need its recorded logD at 72 h.
A. 3.6
